# TARGET_OR_TEST_SYSTEM: Cytochrome P450 1A1 (Homo sapiens)
# Sequence (P04798 whole entry): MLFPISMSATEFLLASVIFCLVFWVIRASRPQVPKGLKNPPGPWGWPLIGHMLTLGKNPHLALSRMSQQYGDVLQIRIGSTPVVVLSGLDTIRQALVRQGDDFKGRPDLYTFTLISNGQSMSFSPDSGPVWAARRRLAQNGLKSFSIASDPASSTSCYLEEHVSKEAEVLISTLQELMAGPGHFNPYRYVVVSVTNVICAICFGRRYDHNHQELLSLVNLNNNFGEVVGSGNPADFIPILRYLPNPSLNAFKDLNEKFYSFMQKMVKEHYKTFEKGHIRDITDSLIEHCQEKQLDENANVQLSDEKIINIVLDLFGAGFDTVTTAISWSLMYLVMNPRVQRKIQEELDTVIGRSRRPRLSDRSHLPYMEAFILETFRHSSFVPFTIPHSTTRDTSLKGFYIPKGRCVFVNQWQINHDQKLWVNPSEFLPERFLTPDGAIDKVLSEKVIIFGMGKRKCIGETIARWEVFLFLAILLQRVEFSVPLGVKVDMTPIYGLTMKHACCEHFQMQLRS
Provide the reported pIC50 of each item.
Scale note: pIC50 = -log10(concentration in M).

Can you share its pIC50? I mean this compound: `COc1ccc(OC)c2c1c(OC)cc1c(=O)cc(-c3cccc(Cl)c3)oc12`
8.19

Next compound: `COc1ccc(OC)c2c1c(OC)cc1c(=O)cc(-c3cccc(F)c3)oc12`
7.94

Can you check `COc1ccc(OC)c2c1c(OC)cc1c(=O)cc(-c3ccc(OCc4ccccc4)cc3)oc12` next?
7.17

Next up: `COc1ccc(OC)c2c1c(OC)cc1c(=O)cc(-c3ccc(O)cc3)oc12`
6.94

Would you mind doing `COc1ccccc1-c1cc(=O)c2cc(OC)c3c(OC)ccc(OC)c3c2o1` as well?
7.73

----------
Target protein (sequence): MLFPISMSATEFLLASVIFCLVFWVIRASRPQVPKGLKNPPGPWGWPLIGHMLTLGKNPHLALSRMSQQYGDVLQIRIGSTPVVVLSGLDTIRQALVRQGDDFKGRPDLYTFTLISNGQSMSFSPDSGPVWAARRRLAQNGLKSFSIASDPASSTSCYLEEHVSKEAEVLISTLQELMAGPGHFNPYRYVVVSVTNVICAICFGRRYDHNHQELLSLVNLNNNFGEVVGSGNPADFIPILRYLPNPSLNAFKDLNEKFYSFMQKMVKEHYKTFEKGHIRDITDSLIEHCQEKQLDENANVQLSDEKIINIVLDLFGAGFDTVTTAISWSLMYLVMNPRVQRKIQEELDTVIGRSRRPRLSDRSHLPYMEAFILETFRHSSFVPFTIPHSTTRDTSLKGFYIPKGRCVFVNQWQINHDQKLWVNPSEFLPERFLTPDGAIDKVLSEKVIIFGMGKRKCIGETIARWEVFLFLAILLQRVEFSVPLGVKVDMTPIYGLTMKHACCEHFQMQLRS
OBSERVED_PROPERTY: IC50 (nM)
# number only, unit nM dropped from output

Which measured IC50 value corresponds to `COc1ccc(OC)c2c1c(OC)cc1c(=O)c(OCCOC(=O)[C@@H](N)C(C)C)c(-c3cccc(F)c3)oc12` ?
192

Quick one: `COc1cc(-c2cc(=O)c3cc(OC)c4c(OC)ccc(OC)c4c3o2)cc(OC)c1OC`
22.5

Try this compound next: `COc1ccc(OC)c2c1c(OC)cc1c(=O)c(OCCCCCCCCOC(=O)CN)c(-c3cccc(F)c3)oc12`
20.2
